System: MG-63
run.description: Induction of apoptosis in human MG63 cells assessed as total apoptotic cells at 1 uM after 24 hrs by annexin-V-FITC/propidium iodide staining based flow cytometric analysis (reference value: 10.42%)
Assay type: functional
Collected Activity values appear next to each entry.
Write the number in % without appending the unit.

[
  {
    "compound": "COC(=O)[C@@H]1C(C=O)=Cc2cc3c(cc2[C@H]1c1cc(OC)c(OC)c(OC)c1)OCO3",
    "unit.info": "%",
    "Activity": 48.08
  },
  {
    "compound": "COc1cc([C@@H]2c3cc4c(cc3[C@H](O)[C@H]3COC(=O)[C@H]23)OCO4)cc(OC)c1OC",
    "unit.info": "%",
    "Activity": 48.56
  },
  {
    "compound": "C=C1CCC2[C@](C)(CCC[C@]2(C)C(=O)OCc2ccc(COC(=O)[C@@H]3C(C=O)=Cc4cc5c(cc4[C@H]3c3cc(OC)c(OC)c(OC)c3)OCO5)cc2)[C@H]1CCc1ccc2c(OC(C)=O)ccc(OC(C)=O)c2c1 (stereo not given in full)",
    "unit.info": "%",
    "Activity": 89.96
  },
  {
    "compound": "C=C1CCC2[C@](C)(CCC[C@]2(C)C(=O)OCCCCCCOC(=O)[C@@H]2C(C=O)=Cc3cc4c(cc3[C@H]2c2cc(OC)c(OC)c(OC)c2)OCO4)[C@H]1CCc1ccc2c(OC(C)=O)ccc(OC(C)=O)c2c1 (stereo not given in full)",
    "unit.info": "%",
    "Activity": 11.24
  }
]

Could you now look at the following compound, please?
Q: Which measured Activity belongs to C=C1CCC2[C@](C)(CCC[C@]2(C)C(=O)OCCCOC(=O)[C@@H]2C(C=O)=Cc3cc4c(cc3[C@H]2c2cc(OC)c(OC)c(OC)c2)OCO4)[C@H]1CCc1ccc2c(OC(C)=O)ccc(OC(C)=O)c2c1 (stereo not given in full) , tested on MG-63?
A: 25.03

###

System: MCF7
run.description: Cytotoxicity against human MCF7 cells after 24 hrs by annexin-V-FITC/propidium iodide staining based flow cytometric method
Format: functional, cell-based
reported.conditions: MCF7, 24 h
pIC50: −log10 of the molar value.
property.label: pIC50

Known pIC50 results, listed for orientation:
[
  {
    "compound": "C=C1CCC2[C@](C)(CCC[C@]2(C)C(=O)OC)[C@H]1CCc1ccc2c(OC(C)=O)ccc(OC(C)=O)c2c1 (stereo partly specified)",
    "result": 4.52
  },
  {
    "compound": "C=C1CCC2[C@](C)(CCC[C@]2(C)C(=O)OCc2ccc(COC(=O)[C@@H]3C(C=O)=Cc4cc5c(cc4[C@H]3c3cc(OC)c(OC)c(OC)c3)OCO5)cc2)[C@H]1CCc1ccc2c(OC(C)=O)ccc(OC(C)=O)c2c1 (stereo partly specified)",
    "result": "< 4.00"
  },
  {
    "compound": "COc1cc([C@@H]2c3cc4c(cc3[C@H](O)[C@H]3COC(=O)[C@H]23)OCO4)cc(OC)c1OC",
    "result": "< 4.00"
  },
  {
    "compound": "C=C1CCC2[C@](C)(CCC[C@]2(C)C(=O)OCCCOC(=O)[C@@H]2C(C=O)=Cc3cc4c(cc3[C@H]2c2cc(OC)c(OC)c(OC)c2)OCO4)[C@H]1CCc1ccc2c(OC(C)=O)ccc(OC(C)=O)c2c1 (stereo partly specified)",
    "result": "< 4.00"
  },
  {
    "compound": "COC(=O)[C@@H]1C(C=O)=Cc2cc3c(cc2[C@H]1c1cc(OC)c(OC)c(OC)c1)OCO3",
    "result": "< 4.00"
  }
]

Q: Which measured pIC50 belongs to C=C1CCC2[C@](C)(CCC[C@]2(C)C(=O)OCCCCCCOC(=O)[C@@H]2C(C=O)=Cc3cc4c(cc3[C@H]2c2cc(OC)c(OC)c(OC)c2)OCO4)[C@H]1CCc1ccc2c(OC(C)=O)ccc(OC(C)=O)c2c1 (stereo partly specified) , tested on MCF7?
A: < 4.00

###

System: MG-63
run.description: Cytotoxicity against human MG63 cells after 24 hrs by annexin-V-FITC/propidium iodide staining based flow cytometric method
Assay type: functional, cell-based
reported.conditions: MG-63, 24 h
property.label: pIC50
API: returns pIC50 as number; meaning -log10 of concentration in mol/L.

[
  {
    "molecule": "COc1cc([C@@H]2c3cc4c(cc3[C@H](O)[C@H]3COC(=O)[C@H]23)OCO4)cc(OC)c1OC",
    "assayed.system": "MG-63",
    "numeric.readout": 4.74
  },
  {
    "molecule": "C=C1CCC2[C@](C)(CCC[C@]2(C)C(=O)OCCCOC(=O)[C@@H]2C(C=O)=Cc3cc4c(cc3[C@H]2c2cc(OC)c(OC)c(OC)c2)OCO4)[C@H]1CCc1ccc2c(OC(C)=O)ccc(OC(C)=O)c2c1 (stereo partly drawn)",
    "assayed.system": "MG-63",
    "numeric.readout": 4.24
  }
]

Could you now look at the following molecule, please?
Q: Which measured pIC50 belongs to COC(=O)[C@@H]1C(C=O)=Cc2cc3c(cc2[C@H]1c1cc(OC)c(OC)c(OC)c1)OCO3 , tested on MG-63?
A: 5.91

###

Collected pIC50 values appear next to each entry.
Tested on: HT-29
run.description: Cytotoxicity against human HT-29 cells after 24 hrs by annexin-V-FITC/propidium iodide staining based flow cytometric method
Assay type: functional, cell-based
reported.conditions: HT-29, 24 h
pIC50: −log10 of the molar value.

[
  {
    "compound": "C=C1CCC2[C@](C)(CCC[C@]2(C)C(=O)OCCCOC(=O)[C@@H]2C(C=O)=Cc3cc4c(cc3[C@H]2c2cc(OC)c(OC)c(OC)c2)OCO4)[C@H]1CCc1ccc2c(OC(C)=O)ccc(OC(C)=O)c2c1 (stereo partly specified)",
    "assayed.system": "HT-29",
    "result": "< 4.00"
  },
  {
    "compound": "C=C1CCC2[C@](C)(CCC[C@]2(C)C(=O)OCc2ccc(COC(=O)[C@@H]3C(C=O)=Cc4cc5c(cc4[C@H]3c3cc(OC)c(OC)c(OC)c3)OCO5)cc2)[C@H]1CCc1ccc2c(OC(C)=O)ccc(OC(C)=O)c2c1 (stereo partly specified)",
    "assayed.system": "HT-29",
    "result": "< 4.00"
  },
  {
    "compound": "COC(=O)[C@@H]1C(C=O)=Cc2cc3c(cc2[C@H]1c1cc(OC)c(OC)c(OC)c1)OCO3",
    "assayed.system": "HT-29",
    "result": "< 4.00"
  },
  {
    "compound": "C=C1CCC2[C@](C)(CCC[C@]2(C)C(=O)OCCCCCCOC(=O)[C@@H]2C(C=O)=Cc3cc4c(cc3[C@H]2c2cc(OC)c(OC)c(OC)c2)OCO4)[C@H]1CCc1ccc2c(OC(C)=O)ccc(OC(C)=O)c2c1 (stereo partly specified)",
    "assayed.system": "HT-29",
    "result": 4.24
  }
]

Q: Bench note: what pIC50 did C=C1CCC2[C@](C)(CCC[C@]2(C)C(=O)OC)[C@H]1CCc1ccc2c(OC(C)=O)ccc(OC(C)=O)c2c1 (stereo partly specified) show?
A: 5.25

Q: Bench note: what pIC50 did COc1cc([C@@H]2c3cc4c(cc3[C@H](O)[C@H]3COC(=O)[C@H]23)OCO4)cc(OC)c1OC show?
A: < 4.00

###

Tested on: MG-63
run.description: Cytotoxicity against human MG63 cells after 24 hrs by annexin-V-FITC/propidium iodide staining based flow cytometric method
Format: functional, cell-based
reported.conditions: MG-63, 24 h
Collected pIC50 values appear next to each entry.
API: returns pIC50 as number; meaning -log10 of concentration in mol/L.

Known pIC50 results, listed for orientation:
[
  {
    "compound": "C=C1CCC2[C@](C)(CCC[C@]2(C)C(=O)OC)[C@H]1CCc1ccc2c(OC(C)=O)ccc(OC(C)=O)c2c1 (stereo partly drawn)",
    "pIC50": 5.94
  },
  {
    "compound": "C=C1CCC2[C@](C)(CCC[C@]2(C)C(=O)OCc2ccc(COC(=O)[C@@H]3C(C=O)=Cc4cc5c(cc4[C@H]3c3cc(OC)c(OC)c(OC)c3)OCO5)cc2)[C@H]1CCc1ccc2c(OC(C)=O)ccc(OC(C)=O)c2c1 (stereo partly drawn)",
    "pIC50": 6.30
  }
]

Could you now look at the following compound, please?
Q: Bench note: what pIC50 did C=C1CCC2[C@](C)(CCC[C@]2(C)C(=O)OCCCCCCOC(=O)[C@@H]2C(C=O)=Cc3cc4c(cc3[C@H]2c2cc(OC)c(OC)c(OC)c2)OCO4)[C@H]1CCc1ccc2c(OC(C)=O)ccc(OC(C)=O)c2c1 (stereo partly drawn) show?
A: 4.35
